- System: A549 NSCLC
Classes used: 1.0 for active, 0.0 for inactive

> print(dat)
                                   compound  qualitativelabel
1          Cc1cccc(CN(C)c2ccc(CO)c(Cl)c2)c1               0.0
2  COc1cc2c(cc1OCCCCNC(=O)c1cc3ccccc3[nH]1)N=CC1CCCN1C2=O (stereo not given)               0.0
3  Cc1ccc(-n2c3c(c4c(CN5CCCCC5)c(O)ccc42)CCc2ccccc2C3=O)cc1               0.0
4  C=C1CC[C@@H]2C(C)(C)[C@@H](O)CC[C@@]2(C)[C@@H]1COc1ccc2ccc(=O)oc2c1               0.0
5          CC/C(=N\Nc1nc2ccccc2n1C)c1ccccn1               1.0

Origin of measurements: PubChem BioAssay (NCI)
